The entries below come with measured pKi values attached.
Biological target: 3α-HSD (Rattus norvegicus, UniProt P23457)
Construct: The homogeneous 3α-HSD of rat liver cytosol; from tissue; host or cells: rat liver cytosol
Sequence (P23457 1-322): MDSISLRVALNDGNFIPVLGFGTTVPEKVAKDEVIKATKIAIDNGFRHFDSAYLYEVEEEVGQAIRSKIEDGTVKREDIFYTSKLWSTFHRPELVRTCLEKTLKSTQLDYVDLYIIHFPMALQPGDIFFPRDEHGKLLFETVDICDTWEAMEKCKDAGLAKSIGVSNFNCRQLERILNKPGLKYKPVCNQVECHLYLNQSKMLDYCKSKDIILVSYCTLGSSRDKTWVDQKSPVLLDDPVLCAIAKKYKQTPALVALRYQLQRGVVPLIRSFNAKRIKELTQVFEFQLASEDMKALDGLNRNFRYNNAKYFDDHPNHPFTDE
Test: Competitive inhibition of androsterone oxidation catalyzed by 3α-HSD, initial velocity conditions, method of Dixon
Assay type: biochemical
Conditions: inhibition constants under initial velocity conditions, NADH formation at 340 nm, pH 7.0
pKi: −log10 of the molar value.
assayReadout: pKi

{"columns": ["compound", "systemName", "readoutValue"],
 "data": [
  ["Cc1ccc(Cl)c(Nc2ccccc2C(=O)O)c1Cl [Meclofenamate (II), meclofenamic acid, reference compound]", "3α-HSD (Rattus norvegicus, UniProt P23457)", 5.96],
  ["COc1ccc2c(c1)c(CC(=O)O)c(C)n2C(=O)c1ccc(Cl)cc1 [Indomethacin (I), indomethacin, reference compound]", "3α-HSD (Rattus norvegicus, UniProt P23457)", 6.08],
  ["O=C(CBr)Nc1cccc(Nc2ccccc2C(=O)O)c1", "3α-HSD (Rattus norvegicus, UniProt P23457)", 5.82],
  ["Cc1ccc(C(=O)c2ccc(CC(=O)O)n2C)cc1 [Tolmetin (IV), tolmetin, reference compound]", "3α-HSD (Rattus norvegicus, UniProt P23457)", 4.54]
]}
